Attribution: patent US20220235103A1

The entries below come with measured Kd values attached.
- Target Desc: bio-S ecto Sino (SARS-CoV-2, UniProt P0DTC2 16-1213)
Metric Name: Kd (nM)

INSERT INTO results (binder, value_observed) VALUES
  ('vS07_12C06 (designed binder, also called R1b; Rb1) MRGSHHHHHHGSDLGKKLLQAARAGQLDEVRELLKAGADVNAKDREGKTPLHVAAQEGHLEIVEVLLKAGADVNAKDVWGRTPLHLAAWIGHLEIVEVLLKAGADVNAKDVSGATPLHAAALHGHLEIVEVLLNAGADVNAQDKSGKTPADLAARAGHQDIAEVLQKAA', 0.021),
  ('vS07_26C03 (designed binder, also called RN2) MRGSHHHHHHGSDLGWKLLWAAQVGQDDEVRILLAAGADVNAKDDLGWTPLHIAAWVGHLEIVEVLLKAGADVNAKDFTGRTPLHHAATEGHLEIVKVLLKAGADVNAQDDVGHTPADLAALWGHEDIAEVLQKAA', 23),
  ('vS07_29B10 (designed binder, also called R3b) MRGSHHHHHHGSDLGKKLLQAARAGQLDEVRELLKAGADVNAKDREGITPLHLAAQHGHLEIVEVLLKAGADVNAKDVWGRTPLHLAAWQGHLEIVEVLLKAGADVNAKDLAGATPLHVAALYGHLEIVEVLLKAGADVNAQDKSGKTPADLAARAGHQDIAEVLQKAA', 0.081),
  ('vS07_19G10 (designed binder, also called R2a) MRGSHHHHHHGSDLGNKLLDAAWVGQDDEVRILLAAGADVNAKDWQGETPLHLAATKGHLEIVEVLLKAGADVNAKDVVGYTPLHVAASQGHLEIVEVLLKAGADVNAQDVHGYTPADLAAQAGHEDIAEVLQKAA', 0.26),
  ('vS07_23E04 (designed binder, also called R3c) MRGSHHHHHHGSDLGKKLLQAARAGQLDEVRELLKAGADVNAKDQEGITPLHVAAHQGHLEIVEVLLKAGADVNAKDVWGRTPLHLAAWRGHLEIVEVLLKAGADVNAKDHAGATPLHAAALSGHLEIVEVLLKAGADVNAQDKSGKTPADLAARAGHQDIAEVLQKAA', 0.09),
  ('vS07_22E12 (designed binder, also called R3a) MRGSHHHHHHGSDLGKKLLQAARAGQLDEVRELLKAGADVNAKDKIGVTPLHIAAEVGHLEIVEVLLKAGADVNAKDVWGRTPLHLAAWSGHLEIVEVLVKAGADVNAKDIAGATPLHAAALFGHLEIVEVLLKVGADVNAQDKSGKTPADLAARAGHQDIAEVLQKAA', 0.24),
  ('vS07_06F12 (designed binder, also called R1a) MRGSHHHHHHGSDLGKKLLQAARAGQLDEVRELLKAGADVNAKDREGWTPLHLAAHQGHLEIVEVLLKAGADVNAKDVFGRTPLHLAAWVGHLEIVEVLLKAGADVNAKDVSGATPLHPAAIYGHLEIVEVLLKAGADVNAQDKSGKTPADLAARAGHQDIAEVLQKAA', 0.25);
